Target: human GPR84 receptor (Homo sapiens, UniProt Q9NQS5)
Construct: frozen aliquots prepared by acCELLerate
Sequence (Q9NQS5 whole entry): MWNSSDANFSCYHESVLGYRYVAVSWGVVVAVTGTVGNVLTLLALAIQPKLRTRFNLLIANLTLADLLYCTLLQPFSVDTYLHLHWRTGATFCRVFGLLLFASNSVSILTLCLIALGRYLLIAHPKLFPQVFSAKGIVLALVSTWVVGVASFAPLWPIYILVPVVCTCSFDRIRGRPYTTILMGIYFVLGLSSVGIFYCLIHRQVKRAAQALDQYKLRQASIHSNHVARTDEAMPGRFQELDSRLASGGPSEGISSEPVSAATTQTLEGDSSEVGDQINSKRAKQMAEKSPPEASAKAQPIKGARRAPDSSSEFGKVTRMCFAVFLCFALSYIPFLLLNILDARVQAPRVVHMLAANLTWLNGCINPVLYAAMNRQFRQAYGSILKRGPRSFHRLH
Experiment: cAMP HTRF assay for identification of cellular GPR84 antagonists
Settings: CHO-K1 cells stably expressing human GPR84; Forskolin + agonist 6-OAU (EC80); average or median values
pIC50: −log10 of the molar value.
measured.parameter: pIC50

As a guide, the following entries are already answered.
>>> test_value("Cc1c(C(=O)NC[C@@H]2COCCO2)oc2c1-c1nn(CC3CC3)cc1C1(CC1)C2")
7.46
>>> test_value("Cc1ccc(Cn2cc3c(n2)-c2c(oc(C(=O)NC[C@@H]4COCCO4)c2C)CC3)nc1")
7.59
>>> test_value("O=C(NC[C@@H]1COCCO1)c1oc2c(c1C(F)(F)F)-c1nn(C[C@H]3COCCO3)cc1C1(CC1)C2")
7.89
>>> test_value("C[C@@H]1Cc2oc(C(=O)NC[C@@H]3COCCO3)c(C(F)(F)F)c2-c2nn(CC3CCOCC3)cc21 (single isomer, unassigned)")
7.89
>>> test_value("Cc1c(C(=O)NCC2CCO2)oc2c1-c1nn(Cc3ccccn3)cc1CC2 (racemic) [Example 35]")
6.33

(P) CCC(=O)C(=O)N1CCC(Cn2cc3c(n2)-c2c(oc(C(=O)NC[C@@H]4COCCO4)c2C(F)(F)F)C[C@H]3C)CC1 (single isomer, unassigned)
(Q) Cc1c(C(=O)NCC2COc3ncccc3O2)oc2c1-c1nn(Cc3ccccn3)cc1CC2 (racemic)
Between P and Q , whose measured pIC50 reads higher? To answer, give the label that identifies your chosen option.
P

----------
Molecular target: human GPR84 receptor (Homo sapiens)
Construct: frozen aliquots prepared by acCELLerate
Experiment: cAMP HTRF assay for identification of cellular GPR84 antagonists
Conditions: CHO-K1 cells stably expressing human GPR84; Forskolin + agonist 6-OAU (EC80); average or median values
From the text: cAMP HTRF® Assay for Identification of Cellular GPR84 Antagonists By using a Homogenous Time-Resolved Fluorescence (HTRF®) based assay (#62AM5PEJ, Cisbio, Condolet, France) the inhibition of the Gi-coupled GPR84 receptor can be detected. […] Detection and quantification of cellular cAMP levels in this HTRF assay is achieved by interaction between a fluorescent cAMP tracer (cAMP-d2) and an Eu-cryptate labelled anti-cAMP antibody. […]
measured.parameter: IC50 (nM)

>>> test_value("CC1(C)CCC(CNC(=O)c2oc3c(c2C(F)(F)F)-c2nn(C[C@H]4COCCO4)cc2CC3)O1 (mixture of isomers) [Example 223]")
23
>>> test_value("Cc1c(C(=O)NC[C@@H]2COCCO2)oc2c1-c1nn(C[C@@H]3CCOC3)cc1CC2 [Example 114]")
200

(a) Cc1ccn(CCNC(=O)c2oc3c(c2C(F)(F)F)-c2nn(C[C@H]4COCCO4)cc2CC3)n1 [Example 234]
(b) Cc1c(C(=O)NC[C@@H]2CCCO2)oc2c1-c1nn(C[C@H]3CN(C)CCO3)cc1CC2 [Example 101]
(c) Cc1c(C(=O)NCC2CC(C)CO2)oc2c1-c1nn(Cc3ccccn3)cc1CC2 (mixture of isomers) [Example 175]
(d) Cc1c(C(=O)NC[C@@H]2CCCO2)oc2c1-c1nn(C(C)(C)c3cccnc3)cc1CC2 [Example 289]
(e) Cn1ccc(CNC(=O)c2oc3c(c2C(F)(F)F)-c2nn(C[C@H]4COCCO4)cc2C2(CCC2)C3)n1 [Example 270]
Hello, I need these entries ordered by IC50, highest reading first. Thanks! # output: labels, in the requested order
a, b, d, e, c
